Ref: ChEMBL document CHEMBL1130043

Can you tell me Log2 MIC for the items I'm about to list?
Tested on: Escherichia coli
Test: Antibacterial activity against Escherichia coli ISF 432(Gram negative) strain.
Type: functional

compound	target-system	Log2 MIC
Nc1cc2c(=O)c(C(=O)O)cn(C3CC3)c2cc1N1CCSC1	Escherichia coli	7
Cc1c(N2CCNCC2)c(N)cc2c(=O)c(C(=O)O)cn(C3CC3)c12	Escherichia coli	12
CN1CCN(c2cc3c(cc2N)c(=O)c(C(=O)O)cn3C2CC2)CC1	Escherichia coli	12
Nc1cc2c(=O)c(C(=O)O)cn(-c3ccc(F)cc3)c2cc1N1CCSCC1	Escherichia coli	12
Cc1c(N2CCSCC2)c(N)cc2c(=O)c(C(=O)O)cn(C3CC3)c12	Escherichia coli	12
CC(C)(C)n1cc(C(=O)O)c(=O)c2cc(N)c(N3CCCC3)cc21	Escherichia coli	10
CN1CCN(c2cc3c(cc2N)c(=O)c(C(=O)O)cn3-c2ccc(F)cc2)CC1	Escherichia coli	10
Cc1c(N2CCOCC2)c(N)cc2c(=O)c(C(=O)O)cn(C3CC3)c12	Escherichia coli	12

I would be grateful if you could provide Log2 MIC for each of the following entries.
1. Cc1c(N2CC(C)NC(C)C2)c(N)cc2c(=O)c(C(=O)O)cn(C3CC3)c12 (configuration not stated)
2. CN1CCN(c2c(N)cc3c(=O)c(C(=O)O)cn(C4CC4)c3c2F)CC1
3. NCCSc1cc2c(cc1N)c(=O)c(C(=O)O)cn2C1CC1
4. CC1CN(c2cc3c(cc2N)c(=O)c(C(=O)O)cn3C2CC2)CC(C)N1 (configuration not stated)
5. Nc1cc2c(=O)c(C(=O)O)cn(C3CC3)c2cc1N1CCSCC1
6. CN1CCN(c2c(N)c(N)c3c(=O)c(C(=O)O)cn(C4CC4)c3c2F)CC1

[12, 11, 7, 12, 12, 12]

I would be grateful if you could provide Log2 MIC for each of the following entries.
1. CC(=O)NC1CCN(c2cc3c(cc2N)c(=O)c(C(=O)O)cn3C2CC2)C1 (configuration not stated)
2. Nc1cc2c(=O)c(C(=O)O)cn(C3CC3)c2cc1Cl
3. Cc1c(N2CCCC2)c(N)cc2c(=O)c(C(=O)O)cn(C3CC3)c12
4. NCCN1CCN(c2cc3c(cc2N)c(=O)c(C(=O)O)cn3C2CC2)CC1
5. CC(C)(C)n1cc(C(=O)O)c(=O)c2cc(N)c(N3CCc4ccccc4C3)cc21
6. Nc1cc2c(=O)c(C(=O)O)cn(C3CC3)c2cc1NC1CC1
7. CN1CCN(c2cc3c(c(N)c2N)c(=O)c(C(=O)O)cn3C2CC2)CC1
8. Nc1cc2c(=O)c(C(=O)O)cn(C3CC3)c2cc1N1CCC(O)CC1

5
6
7
8
10
5
3
12
